Values from patent US20030220232A1

- System: sodium ion channels
- assay-explanation: Neuroinhibitory assay: inhibition of sodium currents, whole cell mode, differentiated NH15-CA2 neuroblastoma-x-glioma cells
- Assay type: cell-based
- condition: NH15-CA2 cells; currents induced by 1 Hz rectangular pulses; seven measurements; read-out: peptide concentration giving half-maximum inhibition of the sodium ion currents
pIC50: −log10 of the molar value.
parameter-measured: pIC50

> print(dat)
                                  substance  parameter.measured  endpoint.result
1  Gln-Tyr-Asn-Ala-Asp (QYNAD) [SEQ ID NO:1]               pIC50           > 5.00
